assay name: Compound was tested for its half life period at pH 8.0 using Sodium phosphate buffer
Assay type: ADME
quantity measured: half-life (h)

Consider the worked cases shown below.
q: Entry CC(=O)OCC(CO)OCn1cnc2c(F)nc(N)nc21 (centres undefined) has what half-life?
a: 168

q: Entry `CCC(=O)OCC(COC(=O)CC)OCn1cnc2c(F)nc(N)nc21` has what half-life?
a: 48

q: Entry CCCC(=O)OCC(CO)OCn1cnc2c(F)nc(N)nc21 (centres undefined) has what half-life?
a: 288

q: Entry `Nc1nc(F)c2ncn(COC(CO)CO)c2n1` has what half-life?
a: 720

a = CCCC(=O)OCC(COC(=O)CCC)OCn1cnc2c(F)nc(N)nc21
b = CCC(=O)OCC(CO)OCn1cnc2c(F)nc(N)nc21 (centres undefined)
q: Lab notebook, comparison: a versus b , higher half-life goes to which? Return value: the label identifying the chosen record.
a: b
(b: 168 h, a: 96 h)

P = CC(C)C(=O)OCC(CO)OCn1cnc2c(F)nc(N)nc21 (centres undefined)
Q = CC(C)C(=O)OCC(COC(=O)C(C)C)OCn1cnc2c(F)nc(N)nc21
R = CC(=O)OCC(COC(C)=O)OCn1cnc2c(F)nc(N)nc21
q: Descending sort on half-life required. Enter labels, ranked according to the request.
a: P, Q, R

----------
System: Human betaherpesvirus 5
assay name: In vitro antiviral (HCMV-AD169) activity of the compound (Concentration required to reduce 50% of the plaques) determined by plaque reduction assay.
Assay type: functional, cell-based
condition: Human betaherpesvirus 5, AD169, HEL 299
pEC50: −log10 of the molar value.
quantity measured: pEC50

Consider the worked cases shown below.
q: Entry `CCCC(=O)OCC(COC(=O)CCC)OCn1cnc2c(F)nc(N)nc21` has what pEC50?
a: < 4.00

q: Entry `CCC(=O)OCC(COC(=O)CC)OCn1cnc2c(F)nc(N)nc21` has what pEC50?
a: < 4.00

q: Entry CCC(=O)OCC(CO)OCn1cnc2c(F)nc(N)nc21 (stereo unspecified) has what pEC50?
a: < 4.00

q: Entry CC(C)C(=O)OCC(CO)OCn1cnc2c(F)nc(N)nc21 (stereo unspecified) has what pEC50?
a: < 4.00

q: Entry `Nc1nc2c(ncn2COC(CO)CO)c(=O)[nH]1` has what pEC50?
a: 6.20

--- query ---
q: Entry `Nc1nc(F)c2ncn(COC(CO)CO)c2n1` has what pEC50?
a: < 4.00

----------
Test system: Rattus norvegicus
assay name: Total amount of Ganciclovir recovered in the urine over a 48 hr period after an oral dose of 0.1 mmol/kg to male SD rat
Assay type: functional
quantity measured: Ganciclovir recovered in urine over 48 h (% of dose) (%)
Give your result in % as a bare value.

Consider the worked cases shown below.
q: Form entry - test system: Rattus norvegicus; read-out: Ganciclovir recovered in urine over 48 h (% of dose); compound: `Nc1nc2c(ncn2COC(CO)CO)c(=O)[nH]1`
a: 3

q: Form entry - test system: Rattus norvegicus; read-out: Ganciclovir recovered in urine over 48 h (% of dose); compound: `CCC(=O)OCC(COC(=O)CC)OCn1cnc2c(F)nc(N)nc21`
a: 35

q: Form entry - test system: Rattus norvegicus; read-out: Ganciclovir recovered in urine over 48 h (% of dose); compound: CC(C)C(=O)OCC(CO)OCn1cnc2c(F)nc(N)nc21 (stereo not given)
a: 45

q: Form entry - test system: Rattus norvegicus; read-out: Ganciclovir recovered in urine over 48 h (% of dose); compound: `CC(C)OCC(COC(C)C)OCn1cnc2cnc(N)nc21`
a: 14

--- query ---
q: Form entry - test system: Rattus norvegicus; read-out: Ganciclovir recovered in urine over 48 h (% of dose); compound: `CC(C)C(=O)OCC(COC(=O)C(C)C)OCn1cnc2c(F)nc(N)nc21`
a: 42

----------
assay name: Compound was tested for its half life period at pH 6.0 using Sodium phosphate buffer
Type: ADME
quantity measured: half-life (days)

q: Entry CC(C)C(=O)OCC(CO)OCn1cnc2c(F)nc(N)nc21 (stereo unspecified) has what half-life?
a: 56

q: Entry CCCC(=O)OCC(CO)OCn1cnc2c(F)nc(N)nc21 (stereo unspecified) has what half-life?
a: 51

P = CC(=O)OCC(CO)OCn1cnc2c(F)nc(N)nc21 (stereo unspecified)
Q = Nc1nc(F)c2ncn(COC(CO)CO)c2n1
R = CCC(=O)OCC(CO)OCn1cnc2c(F)nc(N)nc21 (stereo unspecified)
q: Descending sort on half-life required. Enter labels, ranked according to the request.
a: Q, P, R
(Q: 107 days, P: 56 days, R: 37 days)

----------
assay name: Compound was tested for solubility in water at 25 degree C
Type: ADME
condition: read-out: S
quantity measured: solubility (µg/mL)

Consider the worked cases shown below.
q: Entry CCC(=O)OCC(CO)OCn1cnc2c(F)nc(N)nc21 (stereo not given) has what solubility?
a: 19000

q: Entry `CCCC(=O)OCC(COC(=O)CCC)OCn1cnc2c(F)nc(N)nc21` has what solubility?
a: 600

q: Entry CCCC(=O)OCC(CO)OCn1cnc2c(F)nc(N)nc21 (stereo not given) has what solubility?
a: 19400

a = CC(=O)OCC(COC(C)=O)OCn1cnc2c(F)nc(N)nc21
b = CC(=O)OCC(CO)OCn1cnc2c(F)nc(N)nc21 (stereo not given)
q: Lab log: flag the item ( a or b ) with the smaller solubility figure. Return value: the label identifying the chosen record.
a: a

a = CC(C)C(=O)OCC(COC(=O)C(C)C)OCn1cnc2c(F)nc(N)nc21
b = CCC(=O)OCC(COC(=O)CC)OCn1cnc2c(F)nc(N)nc21
q: Lab log: flag the item ( a or b ) with the smaller solubility figure. Return value: the label identifying the chosen record.
a: a
(a: 400 µg/mL, b: 700 µg/mL)

I = Nc1nc(F)c2ncn(COC(CO)CO)c2n1
II = CC(C)C(=O)OCC(CO)OCn1cnc2c(F)nc(N)nc21 (stereo not given)
q: Lab log: flag the item ( I or II ) with the smaller solubility figure. Return value: the label identifying the chosen record.
a: II

----------
assay name: Compound was tested for its half life period at pH 1.2 using HCl/NaCl buffer
Format: ADME
quantity measured: half-life (h)

q: Entry `CCC(=O)OCC(COC(=O)CC)OCn1cnc2c(F)nc(N)nc21` has what half-life?
a: 1.38

q: Entry CC(=O)OCC(CO)OCn1cnc2c(F)nc(N)nc21 (centres undefined) has what half-life?
a: 1.02

q: Entry `CCCC(=O)OCC(COC(=O)CCC)OCn1cnc2c(F)nc(N)nc21` has what half-life?
a: 1.08

q: Entry `CC(C)C(=O)OCC(COC(=O)C(C)C)OCn1cnc2c(F)nc(N)nc21` has what half-life?
a: 1.23

q: Entry CCC(=O)OCC(CO)OCn1cnc2c(F)nc(N)nc21 (centres undefined) has what half-life?
a: 1

q: Entry `CC(=O)OCC(COC(C)=O)OCn1cnc2c(F)nc(N)nc21` has what half-life?
a: 1.03

q: Entry `Nc1nc(F)c2ncn(COC(CO)CO)c2n1` has what half-life?
a: 1.03

q: Entry CCCC(=O)OCC(CO)OCn1cnc2c(F)nc(N)nc21 (centres undefined) has what half-life?
a: 1.15

q: Entry CC(C)C(=O)OCC(CO)OCn1cnc2c(F)nc(N)nc21 (centres undefined) has what half-life?
a: 1.08

----------
System: Rattus norvegicus
assay name: Total amount of Ganciclovir recovered in the urine over a 48 hr period after an oral dose of 0.1 mmol/kg to male SD rat
Format: functional
quantity measured: Ganciclovir recovered in urine over 48 h (% of dose) (%)
Give your result in % as a bare value.

Consider the worked cases shown below.
q: Entry `CC(=O)OCC(COC(C)=O)OCn1cnc2c(F)nc(N)nc21` has what Ganciclovir recovered in urine over 48 h (% of dose)?
a: 41

q: Entry `CCCC(=O)OCC(COC(=O)CCC)OCn1cnc2c(F)nc(N)nc21` has what Ganciclovir recovered in urine over 48 h (% of dose)?
a: 35

q: Entry CC(=O)OCC(CO)OCn1cnc2c(F)nc(N)nc21 (stereo not given) has what Ganciclovir recovered in urine over 48 h (% of dose)?
a: 29

More entries:
q: Entry `Nc1nc(F)c2ncn(COC(CO)CO)c2n1` has what Ganciclovir recovered in urine over 48 h (% of dose)?
a: 8

q: Entry CCCC(=O)OCC(CO)OCn1cnc2c(F)nc(N)nc21 (stereo not given) has what Ganciclovir recovered in urine over 48 h (% of dose)?
a: 41

Data credit: ChEMBL document CHEMBL1132422
